This section presents compounds with their documented TGI values.
# System: HCT-116 colon
# assay_comment: NCI tumour cell line growth inhibition, 48 h

q: # TGI lookup, item Cn1cnc(N2CCCC2)c(C#N)c1=O
a: > 100 µM

q: # TGI lookup, item CCCC(Sc1ccccc1)P(=O)(c1ccccc1)c1ccccc1 (centres undefined)
a: > 100 µM

***
q: # TGI lookup, item NNCCc1n[nH]c(=O)n1N
a: > 100 µM

q: # TGI lookup, item Cc1ccc2c(C)c3ccc4ccccc4c3c[n+]2c1
a: > 89.7 µM

q: # TGI lookup, item Cc1n[nH]c(=O)n1/N=C\CC/C=N\n1c(C)n[nH]c1=O
a: > 100 µM

q: # TGI lookup, item CCCOc1nc(SCCC)nc2c1cnn2-c1ccccc1
a: > 100 µM

q: # TGI lookup, item O=C(CNC(=O)OCc1ccccc1)NCCCCC(NC(=O)OCc1ccccc1)C(=O)NC(CCCCNC(=O)CNC(=O)OCc1ccccc1)C(=O)OCc1ccccc1 (centres undefined)
a: > 62.5 µM

q: # TGI lookup, item O=C1C(=Nc2ccccc2)Oc2cc(O)ccc21
a: > 100 µM

q: # TGI lookup, item OCC1OC(n2cnc3c(=S)nc[nH]c32)C(O)C1O (centres undefined)
a: > 2500 µM

q: # TGI lookup, item CN(C(=O)c1ccncc1)c1ccccc1
a: > 100 µM

q: # TGI lookup, item Cc1ccc2c(c1)C(=O)c1c-2n(CCCBr)c(=O)c2cc([N+](=O)[O-])ccc12
a: > 100 µM

q: # TGI lookup, item CCCCCCCOc1c(OC)cc(C2CC(=O)Nc3c2c(C)nn3-c2nc3ccccc3[nH]2)cc1OC (centres undefined)
a: > 100 µM

q: # TGI lookup, item COc1cc(C(=O)/C=C/c2cccnc2Nc2ccccc2)cc(OC)c1OC
a: 1.31 µM

q: # TGI lookup, item O=C(CCCN1CCC2(CC1)CC(=O)N(N1CCCCCC1)C2=O)c1ccc(F)cc1
a: > 100 µM

q: # TGI lookup, item CC1OC1C(=O)C1(O)C(C)C(O)C23OC2(C(O)c2c(O)cccc2C3=O)C1O (centres undefined)
a: 0.703 µM

q: # TGI lookup, item COC(=O)C1=C(OC(=O)c2ccc(Cl)cc2)C(C(=O)OC)[C@@]2(O)[C@@H](C(=O)OC)C(c3ccccc3Cl)C[C@@H]1[C@@H]2C(=O)OC (some centres undefined)
a: > 100 µM

q: # TGI lookup, item O=C1OCC/C1=C/c1ccc(N=Nc2c(O)ccc3ccccc23)cc1
a: 34.6 µM

q: # TGI lookup, item CC(C)CCc1n[nH]c(=O)n1/N=C\c1ccccc1
a: > 100 µM

q: # TGI lookup, item N#Cc1cc([N+](=O)[O-])ccc1NC(=O)/C(=N/N)C(C(=O)c1ccc(Cl)c(Cl)c1)C1OC(=O)c2ccccc21 (centres undefined)
a: > 100 µM

----------
# System: NCI/ADR-RES ovarian
# assay_comment: NCI tumour cell line growth inhibition, 48 h
This section presents compounds with their documented TGI values.
Report as a plain number; the unit µM is understood.

q: # TGI lookup, item CC12CC(OC(=O)[C@]1(C)O)[C@@H]([C@]1(O)CC[C@H]3[C@@H]4C[C@H]5O[C@]56[C@@H](O)C=CC(=O)[C@]6(C)[C@H]4CC[C@@]31C)C2 (stereo partly drawn)
a: 68.5

***
q: # TGI lookup, item CCCCCC[C@H]1C(=O)O[C@H](C)[C@H](NC(=O)c2cccc(NC=O)c2OC)C(=O)O[C@@H](C)[C@@H]1OC(=O)CC(C)C (tested in a mixture with another compound)
a: 84.9
